B1: POU domain, class 2, transcription factor 1, residues 285 to 354; numbered along this chain, P14859 (parent)
chain: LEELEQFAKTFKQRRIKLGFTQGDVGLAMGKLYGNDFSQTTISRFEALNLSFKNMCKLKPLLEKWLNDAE

Variants of: B1
testSummary: abundance fitness (aPCA) (normalised: wild type 0, dead -1); higher = more abundant; growth selection in yeast, the domain comes from the species named
conditionNotes: Homo sapiens
Would you kindly list abundance fitness for each of these variants?
Numbers only.

// worked examples, abundance fitness included
mutationString | abundance fitness
L1A | -0.201
K12E | -0.046
K64A | -0.036
F11K | -1.09
C56F | 0.027

Please supply abundance fitness for each of the following items, keeping them in order.
1. Q22P
2. T41I
3. E46Y
4. P60K
5. K59Q
6. C56A

0.001
-0.067
-1.02
-0.072
-0.037
-0.004

Please supply abundance fitness for each of the following items, keeping them in order.
1. T40N
2. E46W
3. L32D
4. W65F
5. Q22I
6. T10C
7. Q13I

0.004
-0.698
-0.078
0.009
-0.076
-0.041
-0.121

Please supply abundance fitness for each of the following items, keeping them in order.
1. L4F
2. K17L
3. N54P
4. A69R
5. Q6H
6. E70R
7. L66E

-0.483
-0.016
-0.135
0.013
-0.001
-0.36
-0.433

Please supply abundance fitness for each of the following items, keeping them in order.
1. S51L
2. T40G
3. L58K
4. F45E
5. Y33T
6. I16V
7. G23D
8. K64R

1: -0.579; 2: -0.028; 3: -0.202; 4: -1.01; 5: -0.061; 6: -0.017; 7: 0.023; 8: -0.019

Please supply abundance fitness for each of the following items, keeping them in order.
1. T40Y
2. L61N
3. L1S

1. 0.077
2. -0.017
3. -0.055

Please supply abundance fitness for each of the following items, keeping them in order.
1. A47R
2. F37N
3. Q39H
4. M55V
5. E2S
6. E5C
7. T10R

1: -0.044; 2: -0.337; 3: 0.028; 4: -0.167; 5: -0.057; 6: -0.114; 7: -0.038

Please supply abundance fitness for each of the following items, keeping them in order.
1. E63N
2. T21A
3. E5H
4. Q13K
5. A8Q

1: -0.199; 2: -0.158; 3: -0.116; 4: 0.042; 5: -0.283

Please supply abundance fitness for each of the following items, keeping them in order.
1. A69T
2. K57F
3. I16Y
4. T10Y
5. L48I

1: -0.012; 2: -0.027; 3: -0.117; 4: -0.063; 5: 0.014
